Data origin, for the record: ChEMBL document CHEMBL4665675

# Tested on: Bel-7402
# experiment-summary: Cytotoxicity against human BEL7402 cells
# Type: functional, cell-based
pIC50: −log10 of the molar value.
Listed here: items and their measured pIC50.

{"columns": ["chemical-structure", "pIC50"],
 "data": [
  ["COc1cc2c(c(OC)c1OC)-c1ccc(NCCOC(=O)CCC(=O)OCCCO[N+](=O)[O-])c(=O)cc1[C@@H](NC(C)=O)CC2", 7.40],
  ["COc1cc2c(c(OC)c1OC)-c1ccc(NCCOC(=O)CCC(=O)OCCCCO[N+](=O)[O-])c(=O)cc1[C@@H](NC(C)=O)CC2", 7.40],
  ["COc1cc2c(c(OC)c1OC)-c1ccc(NCCOC(=O)CCC(=O)OCCCCCO[N+](=O)[O-])c(=O)cc1[C@@H](NC(C)=O)CC2", 7.40],
  ["COc1cc2c(c(OC)c1OC)-c1ccc(NCCOC(=O)CCC(=O)OCCCCCCO[N+](=O)[O-])c(=O)cc1[C@@H](NC(C)=O)CC2", 7.40],
  ["COc1cc2c(c(OC)c1OC)-c1ccc(NCCOC(=O)CCC(=O)OCCO[N+](=O)[O-])c(=O)cc1[C@@H](NC(C)=O)CC2", 7.40],
  ["COc1cc2c(c(OC)c1OC)-c1ccc(NCCOC(=O)CCC(=O)Oc3ccc(CO[N+](=O)[O-])cc3)c(=O)cc1[C@@H](NC(C)=O)CC2", 7.77],
  ["COc1cc2c(c(OC)c1OC)-c1ccc(NCCOC(=O)CCC(=O)Oc3cccc(CO[N+](=O)[O-])c3)c(=O)cc1[C@@H](NC(C)=O)CC2", 7.77]
]}

====

Below, each entry is listed with its recorded pIC50.
# Test system: MCF7
# experiment-summary: Antiproliferative activity against human MCF7 cells incubated for 72 hrs by sulforhodamine B assay
# Type: functional, cell-based
# condition-description: MCF7, 72 h
pIC50: −log10 of the molar value.

{"columns": ["chemical-structure", "pIC50"],
 "data": [
  ["COc1c(Cl)c2c(c(OC)c1OC)-c1ccc(SC)c(=O)cc1[C@@H](NC(=O)OC(C)C)CC2", 7.70],
  ["CCCCOC(=O)N[C@H]1CCc2c(Cl)c(OC)c(OC)c(OC)c2-c2ccc(SC)c(=O)cc21", 7.70],
  ["COC(=O)N[C@H]1CCc2c(Cl)c(OC)c(OC)c(OC)c2-c2ccc(SC)c(=O)cc21", 7.96],
  ["COc1c(Cl)c2c(c(OC)c1OC)-c1ccc(SC)c(=O)cc1[C@@H](NC(C)=O)CC2", 7.66],
  ["COc1c(Cl)c2c(c(OC)c1OC)-c1ccc(SC)c(=O)cc1[C@@H](NC(=O)C(C)C)CC2", 8.70],
  ["CCOC(=O)N[C@H]1CCc2c(Cl)c(OC)c(OC)c(OC)c2-c2ccc(SC)c(=O)cc21", 8.10],
  ["COc1c(Cl)c2c(c(OC)c1OC)-c1ccc(SC)c(=O)cc1[C@@H](NC(=O)OCCO)CC2", 7.40],
  ["CCCOC(=O)N[C@H]1CCc2c(Cl)c(OC)c(OC)c(OC)c2-c2ccc(SC)c(=O)cc21", 8.10],
  ["COc1c(Cl)c2c(c(OC)c1OC)-c1ccc(SC)c(=O)cc1[C@@H](N)CC2", 7.01],
  ["COc1c(F)c2c(c(OC)c1OC)-c1ccc(SC)c(=O)cc1[C@@H](NC(C)=O)CC2", 8.00],
  ["COCC(=O)N[C@H]1CCc2c(Cl)c(OC)c(OC)c(OC)c2-c2ccc(SC)c(=O)cc21", 8.30]
]}

====

# target-under-test: carboxylesterase 1 (CES1) (Homo sapiens)
# Sequence (P23141 whole entry): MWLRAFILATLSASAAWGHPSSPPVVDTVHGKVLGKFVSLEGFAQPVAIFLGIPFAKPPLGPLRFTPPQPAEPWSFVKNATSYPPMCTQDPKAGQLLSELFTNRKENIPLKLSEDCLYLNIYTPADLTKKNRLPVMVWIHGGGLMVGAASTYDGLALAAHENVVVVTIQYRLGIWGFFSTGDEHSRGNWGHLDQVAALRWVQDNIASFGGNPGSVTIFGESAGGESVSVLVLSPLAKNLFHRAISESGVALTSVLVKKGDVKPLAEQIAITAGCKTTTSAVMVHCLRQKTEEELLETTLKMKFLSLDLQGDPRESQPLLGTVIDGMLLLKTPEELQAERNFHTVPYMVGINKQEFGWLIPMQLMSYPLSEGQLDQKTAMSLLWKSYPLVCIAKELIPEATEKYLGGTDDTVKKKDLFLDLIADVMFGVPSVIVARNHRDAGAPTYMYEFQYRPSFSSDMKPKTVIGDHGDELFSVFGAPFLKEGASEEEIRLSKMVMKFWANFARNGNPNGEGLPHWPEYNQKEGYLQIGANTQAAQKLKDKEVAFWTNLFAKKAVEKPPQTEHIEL
# experiment-summary: Substrate activity at human carboxylesterase 1 expressed in baculovirus infected Sf9 insect cells assessed as enzyme-catalysed compound cleavage incubated for 2 hrs by HPLC analysis
# Type: ADME
# condition-description: read-out: Activity
Listed below: metabolised at 2 h values for each entry.
property-measured: metabolised at 2 h

{"columns": ["compound", "target-under-test", "value-reported"],
 "data": [
  ["COc1cc2c(c(OC)c1OC)-c1ccc(NCCCCCC(=O)N[C@@H](CC(C)C)C(=O)OC3CCCC3)c(=O)cc1[C@@H](NC(C)=O)CC2", "carboxylesterase 1 (CES1) (Homo sapiens)", "36%"],
  ["COc1cc2c(c(OC)c1OC)-c1ccc(NCCC(O)C(=O)N[C@H](C(=O)OC3CCCC3)c3ccccc3)c(=O)cc1[C@@H](NC(C)=O)CC2 (some centres not stated)", "carboxylesterase 1 (CES1) (Homo sapiens)", "0%"],
  ["COc1cc2c(c(OC)c1OC)-c1cc(NC(=O)c3ccc(CN[C@@H](CC(C)C)C(=O)OC4CCCC4)cc3)ccc1[C@@H](NC(C)=O)CC2", "carboxylesterase 1 (CES1) (Homo sapiens)", "33%"],
  ["COc1cc2c(c(OC)c1OC)-c1ccc(NCCCCCCCC(=O)N[C@@H](CC(C)C)C(=O)OC3CCCC3)c(=O)cc1[C@@H](NC(C)=O)CC2", "carboxylesterase 1 (CES1) (Homo sapiens)", "76%"],
  ["COc1cc2c(c(OC)c1OC)-c1ccc(NCCC(O)C(=O)N[C@@H](CC(C)C)C(=O)OC3CCCC3)c(=O)cc1[C@@H](NC(C)=O)CC2 (some centres not stated)", "carboxylesterase 1 (CES1) (Homo sapiens)", "13%"],
  ["COc1cc2c(c(OC)c1OC)-c1ccc(NCCCC(=O)N[C@@H](CC(C)C)C(=O)OC3CCCC3)c(=O)cc1[C@@H](NC(C)=O)CC2", "carboxylesterase 1 (CES1) (Homo sapiens)", "18%"],
  ["COc1cc2c(c(OC)c1OC)-c1ccc(NCCCC(=O)N[C@H](C(=O)OC3CCCC3)c3ccccc3)c(=O)cc1[C@@H](NC(C)=O)CC2", "carboxylesterase 1 (CES1) (Homo sapiens)", "0%"]
]}

====

# Tested on: A549
# experiment-summary: Cytotoxicity against human A549 cells incubated for 48 hrs by MTT assay
# Assay type: functional, cell-based
# condition-description: A549, 48 h
Overview of recorded IC50 for various compounds

{"columns": ["chemical-structure", "IC50 / nM"],
 "data": [
  ["COc1cc2c(c(OC)c1OC)-c1ccc(OC)c(=O)cc1[C@@H](NC(C)=O)CC2", 42],
  ["COc1cc2c(c(OC)c1OC)-c1ccc(Nc3ccc(Cl)c(C(F)(F)F)c3)c(=O)cc1[C@@H](NC(C)=O)CC2", 35]
]}

====

Catalogue of IC50 readings, one per entry.
# experiment-summary: Antiproliferative activity against human KB-8511 cells incubated for 96 hrs by spectrophotometric method
# Assay type: functional, cell-based
# condition-description: KB-ChR-8-5-11, 96 h

{"columns": ["chemical-structure", "IC50"],
 "data": [
  ["COc1c(COC(C)=O)c2c(c(OC)c1OC)-c1ccc(OC)c(=O)cc1[C@@H](NC(C)=O)CC2", "> 1000 nM"],
  ["COc1c(CN(C)C(C)=O)c2c(c(OC)c1OC)-c1ccc(OC)c(=O)cc1[C@@H](NC(C)=O)CC2", "> 1000 nM"],
  ["COc1c(CNC(C)=O)c2c(c(OC)c1OC)-c1ccc(OC)c(=O)cc1[C@@H](NC(C)=O)CC2", "> 1000 nM"]
]}

====

# experiment-summary: Inhibition of calf brain tubulin by turbidimetry
# Parameters: species or system Bos taurus
Measured IC50 by item
property-measured: IC50

{"columns": ["chemical-structure", "property-measured", "value-reported"],
 "data": [
  ["COc1ccc2c(c1)/C(=N\\O)CCc1cc(OC)c(OC)c(OC)c1-2", "IC50", "330 nM"],
  ["COc1ccc2c(c1)-c1nc(N)ncc1Cc1cc(OC)c(OC)c(OC)c1-2", "IC50", "670 nM"],
  ["COc1ccc2c(c1)-c1n[nH]cc1Cc1cc(OC)c(OC)c(OC)c1-2", "IC50", "470 nM"],
  ["COc1ccc2c(c1)N(C(C)=O)CCCc1cc(OC)c(OC)c(OC)c1-2", "IC50", "2300 nM"],
  ["COc1ccc2c(c1)C(=O)CCc1cc(OC)c(OC)c(OC)c1-2", "IC50", "430 nM"],
  ["COc1ccc2c(c1)[C@@H](NC(C)=O)CCc1cc(OC)c(OC)c(OC)c1-2", "IC50", "300 nM"],
  ["COc1ccc2c(c1)NC(=O)CCc1cc(OC)c(OC)c(OC)c1-2", "IC50", "21000 nM"]
]}
